Source listed as patent US20170050957A1.

Test system: Key Broadleaf Weed and Crop Species
Assay Explanation: Post-emergent Test II herbicidal activity (Table 15)
Assay type: in vivo
Run Parameters: Abutilon theophrasti, post-emergence, 336 h, velvetleaf (Abutilon theophrasti), 70 g ai/ha, 14 d, read-out: Visual Growth Reduction (%) 14 Days After Application, ABUTH
Text: Post-emergent Test II: Seeds or nutlets of the desired test plant species were planted in Sun Gro Metro-Mix® 360 planting mixture, which typically has a pH of 6.0 to 6.8 and an organic matter content of about 30 percent, in plastic pots with a surface area of 64 square centimeters. When required to ensure good germination and healthy plants, a fungicide treatment and/or other chemical or physical treatment was applied. […]
Assay Readout: pest or weed control at 70 g/ha

Mol | Obs Value
COC(=O)c1nc(-c2ccc3ccsc3c2)c(F)c(N)c1Cl | 95 to 100%

Need pest or weed control at 70 g/ha for each of these compounds.
1. COC(=O)c1nc(-c2cc3[nH]ccc3cc2F)cc(N)c1Cl
2. COC(=O)c1nc(-c2ccc3occc3c2)nc(N)c1OC
3. C=Cc1c(C(=O)O)nc(-c2ccc3cc[nH]c3c2F)c(F)c1N
4. Nc1c(F)c(-c2ccc3cc[nH]c3c2)nc(C(=O)O)c1Cl
5. Nc1c(F)c(-c2ccc3cn[nH]c3c2)nc(C(=O)O)c1Cl
6. COC(=O)c1nc(-c2ccc3sccc3c2)c(F)c(N)c1Cl
7. COC(=O)c1nc(-c2ccc3scnc3c2)c(F)c(N)c1Cl

["0 to 29%", "0 to 29%", "95 to 100%", "95 to 100%", "0 to 29%", "95 to 100%", "85 to 94%"]

Find the recorded pest or weed control at 70 g/ha belonging to Nc1c(F)c(-c2ccc3ccsc3c2)nc(C(=O)O)c1Cl and report it.
0 to 29%

----------
So I've got a bunch of compounds here, and I need their pest or weed control at 70 g/ha values.
System: Key Grass and Sedge Weeds as well as Grass Crops
Assay Explanation: Post-emergent Test II herbicidal activity (Table 16)
Format: in vivo
Run Parameters: Zea mays, post-emergence, 336 h, maize, corn (Zea mays), 70 g ai/ha, 14 d, read-out: Visual Growth Reduction (%) 14 Days After Application, ZEAMX

Mol | Target Of Assay | pest or weed control at 70 g/ha
COC(=O)c1nc(-c2ccc3cc[nH]c3c2)c(Cl)c(N)c1Cl | Key Grass and Sedge Weeds as well as Grass Crops | 30 to 44%
Nc1c(F)c(-c2ccc3ccoc3c2)nc(C(=O)O)c1Cl | Key Grass and Sedge Weeds as well as Grass Crops | 60 to 74%
COc1c(C(=O)O)nc(-c2ccc3cc[nH]c3c2F)c(F)c1N | Key Grass and Sedge Weeds as well as Grass Crops | 75 to 84%
Nc1c(F)c(-c2cccc3cc[nH]c23)nc(C(=O)O)c1Cl | Key Grass and Sedge Weeds as well as Grass Crops | 0 to 29%

Need pest or weed control at 70 g/ha for each of these compounds.
1. Cc1c(-c2ccc3cc[nH]c3c2)nc(C(=O)O)c(Cl)c1N
2. COC(=O)c1nc(-c2ccc(Cl)c3ccoc23)c(F)c(N)c1Cl

["0 to 29%", "30 to 44%"]

Need pest or weed control at 70 g/ha for each of these compounds.
1. COC(=O)c1nc(-c2cc3occc3cc2F)cc(N)c1Cl
2. COC(=O)c1nc(-c2ccc(Cl)c3[nH]ccc23)cc(N)c1Cl
3. COC(=O)c1nc(-c2ccc3cc[nH]c3c2)c(F)c(N)c1Cl
4. COC(=O)c1nc(-c2ccc3sccc3c2)cc(N)c1Cl

["30 to 44%", "0 to 29%", "75 to 84%", "0 to 29%"]

Need pest or weed control at 70 g/ha for each of these compounds.
1. COC(=O)c1nc(-c2cc3[nH]ccc3cc2F)c(F)c(N)c1Cl
2. COC(=O)c1nc(-c2ccc(Cl)c3[nH]ccc23)c(F)c(N)c1Cl
3. COC(=O)c1nc(-c2cccc3cc[nH]c23)c(F)c(N)c1Cl
4. COC(=O)c1nc(-c2ccc3cc[nH]c3c2F)c(Cl)c(N)c1Cl
5. COC(=O)c1nc(-c2cccc3[nH]ccc23)c(F)c(N)c1Cl
6. COC(=O)c1nc(-c2ccc3sccc3c2)c(Cl)c(N)c1Cl

["0 to 29%", "0 to 29%", "0 to 29%", "0 to 29%", "0 to 29%", "45 to 59%"]

----------
Tested on: Key Grass and Sedge Weeds as well as Grass Crops
Assay Explanation: Post-emergent Test II herbicidal activity (Table 16)
Assay type: in vivo
Run Parameters: Triticum aestivum, post-emergence, 336 h, wheat, spring (Triticum aestivum), 140 g ai/ha, 14 d, read-out: Visual Growth Reduction (%) 14 Days After Application, TRZAS
So I've got a bunch of compounds here, and I need their pest or weed control at 140 g/ha values.

Need pest or weed control at 140 g/ha for each of these compounds.
1. COC(=O)c1nc(-c2ccc3cc[nH]c3c2F)c(F)c(N)c1Cl [Compound 1.15]
2. COC(=O)c1nc(-c2ccc(Cl)c3cc[nH]c23)c(F)c(N)c1Cl [Compound 1.46]
3. COC(=O)c1nc(-c2cccc3cc[nH]c23)c(F)c(N)c1Cl [Compound 1.47]
4. COC(=O)c1nc(-c2ccc3ccoc3c2F)cc(N)c1Cl [Compound 2.11]
5. Nc1c(F)c(-c2cccc3cc[nH]c23)nc(C(=O)O)c1Cl [Compound 1.48]

["60 to 74%", "0 to 29%", "0 to 29%", "30 to 44%", "0 to 29%"]

Need pest or weed control at 140 g/ha for each of these compounds.
1. COC(=O)c1nc(-c2ccc3sccc3c2)c(C)c(N)c1Cl [Compound 3.06]
2. COC(=O)c1nc(-c2ccc(Cl)c3occc23)cc(N)c1Cl [Compound 2.19]
3. COC(=O)c1nc(-c2ccc3cc[nH]c3c2)c(C)c(N)c1Cl [Compound 1.28]

1. 0 to 29%
2. 0 to 29%
3. 30 to 44%

Need pest or weed control at 140 g/ha for each of these compounds.
1. COC(=O)c1nc(-c2ccc3sccc3c2)cc(N)c1Cl [Compound 3.05]
2. COC(=O)c1nc(-c2ccc(Cl)c3occc23)nc(N)c1Cl [Compound 2.20]
3. Nc1c(F)c(-c2ccc3[nH]ccc3c2)nc(C(=O)O)c1Cl [Compound 1.04]
4. COC(=O)c1nc(-c2ccc3occc3c2)nc(N)c1OC [Compound 2.06]

1: 0 to 29%; 2: 0 to 29%; 3: 0 to 29%; 4: 0 to 29%

----------
System: Key Broadleaf Weed and Crop Species
Assay Explanation: Post-emergent Test II herbicidal activity (Table 15)
Type: in vivo
Run Parameters: Amaranthus retroflexus, post-emergence, 336 h, redroot pigweed (Amaranthus retroflexus), 35 g ai/ha, 14 d, read-out: Visual Growth Reduction (%) 14 Days After Application, AMARE
So I've got a bunch of compounds here, and I need their pest or weed control at 35 g/ha values.

// known answers, use as guide
Mol | Target Of Assay | pest or weed control at 35 g/ha
COC(=O)c1nc(-c2ccc3ccsc3c2)cc(N)c1Cl | Key Broadleaf Weed and Crop Species | 95 to 100%
COC(=O)c1nc(-c2ccc3ccsc3c2)nc(N)c1OC | Key Broadleaf Weed and Crop Species | 0 to 29%

Need pest or weed control at 35 g/ha for each of these compounds.
1. Nc1cc(-c2ccc3cc[nH]c3c2F)nc(C(=O)O)c1Cl
2. COC(=O)c1nc(-c2cc3sccc3cc2F)nc(N)c1OC
3. COC(=O)c1nc(-c2ccc(Cl)c3occc23)cc(N)c1Cl

1. 95 to 100%
2. 60 to 74%
3. 95 to 100%

----------
Tested on: Key Broadleaf Weed and Crop Species
Assay Explanation: Post-emergent Test II herbicidal activity (Table 15)
Format: in vivo
Run Parameters: Amaranthus retroflexus, post-emergence, 336 h, redroot pigweed (Amaranthus retroflexus), 35 g ai/ha, 14 d, read-out: Visual Growth Reduction (%) 14 Days After Application, AMARE
So I've got a bunch of molecules here, and I need their pest or weed control at 35 g/ha values.

// known answers, use as guide
Molecule | Target Of Assay | Assay Readout | Obs Value
COC(=O)c1nc(-c2ccc3cc[nH]c3c2)nc(N)c1Cl [Compound 1.30] | Key Broadleaf Weed and Crop Species | pest or weed control at 35 g/ha | 0 to 29%
COC(=O)c1nc(-c2ccc3ccn(C)c3c2)c(F)c(N)c1Cl [Compound 1.10] | Key Broadleaf Weed and Crop Species | pest or weed control at 35 g/ha | 0 to 29%
Nc1cc(-c2ccc3cc[nH]c3c2)nc(C(=O)O)c1Cl [Compound 1.22] | Key Broadleaf Weed and Crop Species | pest or weed control at 35 g/ha | 75 to 84%
COC(=O)c1nc(-c2cc3ccoc3cc2F)nc(N)c1OC [Compound 2.05] | Key Broadleaf Weed and Crop Species | pest or weed control at 35 g/ha | 85 to 94%
COc1c(N)nc(-c2ccc3sccc3c2)nc1C(=O)O [Compound 3.09] | Key Broadleaf Weed and Crop Species | pest or weed control at 35 g/ha | 30 to 44%
COC(=O)c1nc(-c2ccc(Cl)c3ccoc23)c(F)c(N)c1Cl [Compound 2.24] | Key Broadleaf Weed and Crop Species | pest or weed control at 35 g/ha | 95 to 100%
COC(=O)c1nc(-c2ccc3cc[nH]c3c2F)c(F)c(N)c1OC [Compound 1.20] | Key Broadleaf Weed and Crop Species | pest or weed control at 35 g/ha | 75 to 84%
COC(=O)c1nc(-c2ccc3ccoc3c2F)cc(N)c1Cl [Compound 2.11] | Key Broadleaf Weed and Crop Species | pest or weed control at 35 g/ha | 95 to 100%
COC(=O)c1nc(-c2ccc3cc[nH]c3c2F)c(F)c(N)c1Cl [Compound 1.15] | Key Broadleaf Weed and Crop Species | pest or weed control at 35 g/ha | 95 to 100%
COC(=O)c1nc(-c2cc3occc3cc2F)c(F)c(N)c1Cl [Compound 2.10] | Key Broadleaf Weed and Crop Species | pest or weed control at 35 g/ha | 85 to 94%

Need pest or weed control at 35 g/ha for each of these molecules.
1. Nc1c(F)c(-c2ccc3ccsc3c2)nc(C(=O)O)c1Cl [Compound 3.13]
2. COC(=O)c1nc(-c2ccc3cc[nH]c3c2)c(Cl)c(N)c1Cl [Compound 1.05]
3. Nc1c(F)c(-c2ccc3cn[nH]c3c2)nc(C(=O)O)c1Cl [Compound 4.06]
4. COC(=O)c1nc(-c2ccc3cc[nH]c3c2F)cc(N)c1Cl [Compound 1.23]
5. Nc1cc(-c2cc3[nH]ccc3cc2F)nc(C(=O)O)c1Cl [Compound 1.26]
6. COC(=O)c1nc(-c2ccc3cc[nH]c3c2)c(F)c(N)c1Cl [Compound 1.08]
7. C=Cc1c(N)nc(-c2ccc3cc[nH]c3c2F)nc1C(=O)O [Compound 1.39]

95 to 100%
60 to 74%
75 to 84%
95 to 100%
75 to 84%
95 to 100%
95 to 100%

Need pest or weed control at 35 g/ha for each of these molecules.
1. COC(=O)c1nc(-c2ccc3cn[nH]c3c2)cc(N)c1Cl [Compound 4.09]
2. Cc1c(-c2ccc3cc[nH]c3c2)nc(C(=O)O)c(Cl)c1N [Compound 1.29]

1. 0 to 29%
2. 45 to 59%
